biological target: HLA-A*2902 (Homo sapiens, UniProt P04439, A270S/D101N/D185E/E176V/E277Q/E87Q/F33T/G231S/H175R/I121M/I218V/I322F/K168Q/L300P/L318F/M331R/P208A/P217A/Q86L/T323A/T345S/V100A/V358M); test: MHC molecular binding / Capture assay, IC50: A*2902; conditions: Binding affinity to A*2902 (expressed as an IC50)
pIC50: −log10 of the molar value.

STRUCTURE_SMILES_STRING: CC(C)C[C@H](NC(=O)[C@H](C)NC(=O)[C@H](CO)NC(=O)[C@H](C)NC(=O)[C@@H](NC(=O)[C@H](CC(=O)O)NC(=O)[C@H](CC(C)C)NC(=O)[C@H](CC(C)C)NC(=O)[C@@H](N)CC(=O)O)[C@@H](C)O)C(=O)N[C@@H](Cc1ccc(O)cc1)C(=O)O
pIC50: 7.13
//
STRUCTURE_SMILES_STRING: CC[C@H](C)[C@H](NC(=O)[C@H](CC(=O)O)NC(=O)[C@H](CCC(N)=O)NC(=O)[C@@H](N)CCCNC(=N)N)C(=O)N[C@@H](CC(C)C)C(=O)N[C@@H](CC(=O)O)C(=O)N[C@@H](CC(C)C)C(=O)N[C@@H](Cc1c[nH]c2ccccc12)C(=O)N[C@H](C(=O)N[C@@H](Cc1ccc(O)cc1)C(=O)O)C(C)C
pIC50: 4.86
//
STRUCTURE_SMILES_STRING: CC[C@H](C)[C@H](NC(=O)[C@H](CCCCN)NC(=O)[C@H](CCC(=O)O)NC(=O)[C@H](CC(C)C)NC(=O)[C@@H](N)[C@@H](C)O)C(=O)N[C@H](C(=O)N[C@@H](CC(N)=O)C(=O)N[C@H](C(=O)N[C@@H](CCC(=O)O)C(=O)N[C@@H](CC(C)C)C(=O)N[C@@H](Cc1ccc(O)cc1)C(=O)O)[C@@H](C)O)[C@@H](C)O
pIC50: 5.08
//
STRUCTURE_SMILES_STRING: CC[C@H](C)[C@H](NC(=O)[C@H](CCC(=O)O)NC(=O)[C@H](CC(C)C)NC(=O)[C@H](C)NC(=O)[C@H](CO)NC(=O)[C@H](CO)NC(=O)[C@H](CC(C)C)NC(=O)[C@@H](N)CCC(=O)O)C(=O)N1CCC[C@H]1C(=O)N[C@@H](Cc1ccc(O)cc1)C(=O)O
pIC50: 5.22

---

target: HLA-A*0203 (Homo sapiens, UniProt P04439, A173T/D140Y/D185E/D98H/E277Q/G131W/G231S/I119V/I121R/I166T/I218V/L180W/L300P/L318F/N151K/N90K/P208A/P217A/Q86G/Q94H/R138H/R169H/T345S); assay: biochemical; type: binding; details: read-out: A*0203 binding affinity (expressed as an IC50)
pIC50: −log10 of the molar value.

MONOMER_SEQUENCE: AXAKAAAAL
pIC50: 5.48

---

Entries and their pIC50 values follow.
molecular target: HLA-DR DRB1*0301 (DR3) (Homo sapiens, UniProt P01903+P01911, A100K/A102G/A103R/A169T/F55Y/I96L/K41T/L162R/M171V/P40S/Q125H/Q178H/Q39Y/R42S/S66N/T106N/T262R/W38E/Y61H); experiment: biochemical; format: binding; details: read-out: DRB1 *0301
Sequence (P01903 26-254 limits assumed, other chains not shown): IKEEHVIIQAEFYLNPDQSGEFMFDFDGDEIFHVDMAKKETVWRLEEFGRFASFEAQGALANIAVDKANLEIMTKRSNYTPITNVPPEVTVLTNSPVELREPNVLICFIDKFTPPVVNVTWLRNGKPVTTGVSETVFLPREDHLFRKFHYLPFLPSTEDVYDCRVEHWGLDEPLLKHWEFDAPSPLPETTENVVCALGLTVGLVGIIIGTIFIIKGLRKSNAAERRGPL
pIC50: −log10 of the molar value.
READOUT_KIND: pIC50

MONOMER_SEQUENCE: SHDLMLLRLSEPAEL
LIMIT_QUALIFIER: =
OBSERVED_MEASUREMENT: 5.21
--
MONOMER_SEQUENCE: CSNLSTCVLQKLSQE
LIMIT_QUALIFIER: <
OBSERVED_MEASUREMENT: 3.69
--
MONOMER_SEQUENCE: LSFFLKEKGGLDGL
LIMIT_QUALIFIER: <
OBSERVED_MEASUREMENT: 3.47
--
MONOMER_SEQUENCE: TLERPKTLSPQKNGV
LIMIT_QUALIFIER: =
OBSERVED_MEASUREMENT: 3.87
--
MONOMER_SEQUENCE: SVTWIGAAPLILSPI
LIMIT_QUALIFIER: <
OBSERVED_MEASUREMENT: 4.09
--
MONOMER_SEQUENCE: TAWTIVRVEILRYFY
LIMIT_QUALIFIER: =
OBSERVED_MEASUREMENT: 5.52
--
MONOMER_SEQUENCE: LGFFPDHQLDPAFRANT
LIMIT_QUALIFIER: =
OBSERVED_MEASUREMENT: 4.92
--
MONOMER_SEQUENCE: VYDFVFADLRIVYRD
LIMIT_QUALIFIER: =
OBSERVED_MEASUREMENT: 8.66
--
MONOMER_SEQUENCE: CCTSICSLYQLENY
LIMIT_QUALIFIER: =
OBSERVED_MEASUREMENT: 4.15

---

Entries and their IC50 values follow.
biological target: HLA-B*0702 (Homo sapiens); experiment: biochemical; format: binding; details: B*0702 binding affinity (IC50)
No end group written: not given here.

MONOMER_SEQUENCE: GPKVKQWPI
UNITS_OF_MEASURE: nM
IC50: 5500
//
MONOMER_SEQUENCE: APAGPGPGAPA
UNITS_OF_MEASURE: nM
IC50: 161
//
MONOMER_SEQUENCE: APGPGPGLL
UNITS_OF_MEASURE: nM
IC50: 299
//
MONOMER_SEQUENCE: APRGPGPGL
UNITS_OF_MEASURE: nM
IC50: 4.9
//
MONOMER_SEQUENCE: TPTGWGLAI
UNITS_OF_MEASURE: nM
IC50: 76
//
MONOMER_SEQUENCE: SPGPGPGL
UNITS_OF_MEASURE: nM
IC50: 173
//
MONOMER_SEQUENCE: TPAGPGPGVF
UNITS_OF_MEASURE: nM
IC50: 334
//
MONOMER_SEQUENCE: LPPLERLTI
UNITS_OF_MEASURE: nM
IC50: 24400
//
MONOMER_SEQUENCE: RPRFGPGPGEF
UNITS_OF_MEASURE: nM
IC50: 14
//
MONOMER_SEQUENCE: LGFVFTLTV
UNITS_OF_MEASURE: nM
IC50: 849
//
MONOMER_SEQUENCE: RPGPGPGAV
UNITS_OF_MEASURE: nM
IC50: 23
//
MONOMER_SEQUENCE: RPRFRGPGPGF
UNITS_OF_MEASURE: nM
IC50: 9.7
//
MONOMER_SEQUENCE: FPGPGPGPL
UNITS_OF_MEASURE: nM
IC50: 1580
//
MONOMER_SEQUENCE: FPVRPQVPI
UNITS_OF_MEASURE: nM
IC50: 94
//
MONOMER_SEQUENCE: RPRGPGPGV
UNITS_OF_MEASURE: nM
IC50: 11
//
MONOMER_SEQUENCE: FPLTFGWCI
UNITS_OF_MEASURE: nM
IC50: 48000
//
MONOMER_SEQUENCE: GPGHKARVI
UNITS_OF_MEASURE: nM
IC50: 1690
//
MONOMER_SEQUENCE: APRTGPGPGL
UNITS_OF_MEASURE: nM
IC50: 15
//
MONOMER_SEQUENCE: APAAGPGPGPA
UNITS_OF_MEASURE: nM
IC50: 173
//
MONOMER_SEQUENCE: FPLTFGWCFKI
UNITS_OF_MEASURE: nM
IC50: 52600
//
MONOMER_SEQUENCE: APRGPGPGAL [APRGPGPGAL]
UNITS_OF_MEASURE: nM
IC50: 11

---

biological target: HLA-DR DRB1*1101 (DR11) (Homo sapiens, UniProt P01903+P01911, A100R/A169T/A87E/I96F/K41T/L162R/M171V/P40S/Q125H/Q178H/Q39Y/Q99D/R42S/S66Y/T262R/V115G/W38E); assay: biochemical; format: binding; conditions: DRB1 *1101
Sequence (P01903 26-254 limits assumed, other chains not shown): as above
pIC50: −log10 of the molar value.
Entries and their pIC50 values follow.
READOUT_KIND: pIC50

STRUCTURE_SMILES_STRING: CSCC[C@H](NC(=O)[C@H](CC(C)C)NC(=O)[C@@H]1CCCN1C(=O)[C@@H](NC(=O)[C@H](CS)NC(=O)[C@H](CC(=O)O)NC(=O)[C@@H](NC(=O)[C@H](CCCNC(=N)N)NC(=O)[C@H](CC(C)C)NC(=O)[C@@H](NC(=O)[C@H](Cc1ccc(O)cc1)NC(=O)[C@@H](N)CC(N)=O)[C@@H](C)O)C(C)C)[C@@H](C)O)C(=O)N[C@@H](Cc1ccc(O)cc1)C(=O)N[C@@H](CO)C(=O)N[C@@H](CC(C)C)C(=O)O
OBSERVED_MEASUREMENT: 5.15
--
STRUCTURE_SMILES_STRING: CC[C@H](C)[C@H](NC(=O)[C@@H]1CCCN1)C(=O)N[C@@H](CC(C)C)C(=O)N[C@@H](CC(C)C)C(=O)N[C@@H](Cc1c[nH]c2ccccc12)C(=O)N[C@@H](CCC(N)=O)C(=O)N1CCC[C@H]1C(=O)N[C@H](C(=O)N1CCC[C@H]1C(=O)N[C@H](C(=O)N[C@@H](Cc1c[nH]cn1)C(=O)N[C@H](C(=O)N[C@H](C(=O)N1CCC[C@H]1C(=O)N[C@@H](CC(C)C)C(=O)O)C(C)C)[C@@H](C)O)C(C)C)[C@@H](C)CC
OBSERVED_MEASUREMENT: 5.39
